tested on: HepG2; assay: Induction of […] uptake in human HepG2 cells at 5 uM by DIL probe based fluorescence assay; assay type: functional, cell-based
The source made the active and inactive calls. The calls are words filed in the database; no cut-off is given here.
Outcome field: choose from true for active, false for inactive

Examples with answers:
Exercise: How was CC(=O)O[C@H]1C[C@@H]2C(=CC(=O)[C@@H]3[C@@]2(C)C(=O)C[C@]2(C)[C@@H]([C@@](C)(O)C(=O)/C=C/C(C)(C)OC(C)=O)[C@H](OC(=O)O)C[C@@]32C)C(C)(C)C1=O classified in this test?
Key: true

Exercise: Hi team, can someone confirm the assay call for CC(=O)OC(C)(C)[C@@H](O)CC(=O)[C@](C)(O)[C@H]1[C@H](O)C[C@@]2(C)[C@@H]3[C@@H](O)C=C4[C@@H](CC(=O)[C@@H](O)C4(C)C)[C@]3(C)C(=O)C[C@]12C ?
Key: true

Exercise: How was CCC(=O)O[C@H]1C[C@@H]2C(=CC[C@@H]3[C@@]2(C)C(=O)C[C@]2(C)[C@@H]([C@@](C)(O)C(=O)CCC(C)(C)OC(C)=O)[C@H](OC(=O)CC)C[C@@]32C)C(C)(C)C1=O classified in this test?
Key: false

Exercise: Could you kindly confirm the outcome this assay logged for CC(=O)O[C@@H]1C[C@@]2(C)[C@@H]3CC=C4[C@@H](CC(=O)[C@H](O)C4(C)C)[C@]3(C)C(=O)C[C@]2(C)[C@H]1[C@@](C)(O)C(=O)CCC(C)(C)OC(C)=O ?
Key: false

Switching to the query record.
Exercise: What did the test return for CC(=O)O[C@H]1C[C@@H]2C(=CC[C@@H]3[C@@]2(C)C(=O)C[C@]2(C)[C@@H]([C@@](C)(O)C(=O)/C=C/C(C)(C)OC(C)=O)[C@H](O)C[C@@]32C)C(C)(C)C1=O ?
Key: false

====

test system: HepG2; assay: Induction of […] uptake in human HepG2 cells at 5 uM by DIL probe based fluorescence assay; type: functional, cell-based
Active and inactive are the calls of the source. No cut-off for these calls is given here.
Readout Kind: Activity

Exercise: State, in one line, measured Activity of CC(=O)OC(C)(C)/C=C/C(=O)[C@](C)(O)[C@H]1C(=O)C[C@@]2(C)[C@@H]3CC=C4[C@@H](C[C@H](O)C(=O)C4(C)C)[C@]3(C)C(=O)C[C@]12C
Key: inactive

Exercise: Please indicate Activity recorded for CC(=O)O[C@@H]1C[C@@]2(C)[C@@H]3CC=C4[C@@H](CC(=O)[C@H](O)C4(C)C)[C@]3(C)C(=O)C[C@]2(C)[C@H]1[C@@](C)(O)C(=O)/C=C/C(C)(C)OC(C)=O
Key: inactive

Exercise: Fill in Activity for record CC(=O)OC1C[C@@H]2C(=CC(=O)[C@@H]3[C@@]2(C)C(=O)C[C@]2(C)[C@@H]([C@@](C)(O)C(=O)CCC(C)(C)OC(C)=O)[C@H](OC(C)=O)C[C@@]32C)C(C)(C)C1O (stereo partly specified)
Key: Active

Exercise: Complete the entry with Activity for CC(=O)OC(C)(C)/C=C/C(=O)[C@](C)(O)[C@H]1[C@H](OC(=O)c2ccccc2)C[C@@]2(C)[C@@H]3CC=C4[C@@H](C[C@H](OC(=O)c5ccccc5)C(=O)C4(C)C)[C@]3(C)C(=O)C[C@]12C
Key: inactive

Exercise: Using the record for CC(=O)OC(C)(C)/C=C/C(=O)[C@](C)(O)[C@H]1[C@H](O)C[C@@]2(C)[C@@H]3CC=C4[C@@H](C[C@H](OC5O[C@H](CO)[C@@H](O)[C@H](O)[C@H]5C)C(=O)C4(C)C)[C@]3(C)C(=O)C[C@]12C (stereo partly specified) , state its measured Activity.
Key: Active

Exercise: Recall and state the measured Activity for CC(=O)OC(C)(C)/C=C/C(=O)[C@](C)(O)[C@H]1[C@H](O)C[C@@]2(C)[C@@H]3CC=C4[C@@H](CC(=O)[C@H](O)C4(C)C)[C@]3(C)C(=O)C[C@]12C .
Key: Active

Exercise: Specify measured Activity for CC(=O)O[C@H]1C(=O)C[C@@H]2C(=CC[C@@H]3[C@@]2(C)C(=O)C[C@]2(C)[C@@H]([C@@](C)(O)C(=O)CCC(C)(C)OC(C)=O)[C@H](O)C[C@@]32C)C1(C)C .
Key: inactive

Exercise: Give me measured Activity, please, for this molecule: CC(=O)OC(C)(C)CCC(=O)[C@](C)(O)[C@H]1[C@H](O)C[C@@]2(C)[C@@H]3CC=C(C(C)(C)O)[C@@H](CC(=O)O)[C@]3(C)C(=O)C[C@]12C
Key: Active

More entries:
Exercise: Output Activity of CC(=O)O[C@@H]1C[C@@]2(C)[C@@H]3CC=C4[C@@H](C[C@H](O)C(=O)C4(C)C)[C@]3(C)C(=O)C[C@]2(C)[C@H]1[C@@](C)(O)C(=O)/C=C/C(C)(C)OC(C)=O
Key: inactive

Exercise: State its Activity: CC(=O)OC(C)(C)/C=C/C(=O)[C@](C)(O)[C@H]1[C@H](O)C[C@@]2(C)[C@@H]3[C@@H](O)C=C4[C@@H](CC(=O)[C@H](O)C4(C)C)[C@]3(C)C(=O)C[C@]12C
Key: Active

Exercise: Entry CC(=O)OC(C)(C)CCC(=O)[C@](C)(O)[C@H]1[C@H](O)C[C@@]2(C)[C@@H]3CC=C4[C@@H](CC(=O)OC4(C)C)[C@]3(C)C(=O)C[C@]12C needs its Activity filled in; supply it.
Key: Active
